Source of measurements: paper PMC4559766

# study_target: T1, Human TNFRI of ML-la cells (human, UniProt P19438 30-455)
# T1 construct: also called p60; source: endogenous, on ML-la cells (human myelomonoblastic leukemia cell line)
# T1 sequence (looked up): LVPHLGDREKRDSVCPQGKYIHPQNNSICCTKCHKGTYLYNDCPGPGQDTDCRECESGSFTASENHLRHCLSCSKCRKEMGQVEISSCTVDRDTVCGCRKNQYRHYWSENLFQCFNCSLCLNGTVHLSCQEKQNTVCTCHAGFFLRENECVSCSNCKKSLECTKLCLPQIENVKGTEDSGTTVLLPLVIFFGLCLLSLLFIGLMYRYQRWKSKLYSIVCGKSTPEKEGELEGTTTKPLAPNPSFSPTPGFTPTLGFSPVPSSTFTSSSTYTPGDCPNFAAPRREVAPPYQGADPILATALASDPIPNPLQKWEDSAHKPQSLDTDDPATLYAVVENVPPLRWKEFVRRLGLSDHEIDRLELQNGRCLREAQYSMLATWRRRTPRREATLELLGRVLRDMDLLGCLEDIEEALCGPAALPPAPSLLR
# experimental_details: radioligand binding; competition: ML-la cells (1 × 10^6 cells/well) preincubated with anti-p60 or anti-p80 antibody (25 °C, 30 min) to block TNFRI or TNFRII, then 125I-labeled TNF α with unlabeled TNF α or RMP16 (10^-11 to 10^-5 M) in RPMI 1640 with 10% fetal calf serum, 25 °C, 1 h; cell-bound radioactivity counted
# experimental_conditions: one partner purified
measurement_label: IC50 (nM)

binder="MWQRPSSWIEGRLLTHTISRIAVSYQTKVNLL (P16, TNF α segment of amino acid residues 75-94, human; also called recombinant peptide RMP16) [RMP16, recombinant TNF α-derived polypeptide]" observed_measurement=15.1
